Catalogue of normalized growth readings, one per entry.
- assay.explanation: chemical genetic growth profiling, strain panel (AID 1159580);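 note: tested at 20 µM; growth read once vehicle control cultures reached saturation at 30 °C; 1 = growth at the plate median or of vehicle wells; lower values mean less growth of the strain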
- study.conditions: S. cerevisiae deletion strains, growth OD, locus YNL153C, strain GIM3, hits give low values
Screen size: about 5,500 compounds; about 2,000 (36%) were called active. Not shown: some 18% with an inconclusive outcome. Some of the results follow.
When you answer, write just the number.

Below, each entry is followed by its recorded normalized growth result.
* COC(=O)CCC(C)C1CCC2C3CC[C@@H]4C[C@H](O)CC[C@]4(C)C3C[C@H](O)[C@]12C (stereo partly specified) | 0.982
* COc1cc([C@H]2Oc3cc([C@H]4Oc5cc(O)cc(O)c5C(=O)[C@@H]4O)ccc3O[C@@H]2CO)ccc1O | 1
* COc1ccc(CCNC(=S)NCCc2ccc(OC)c(OC)c2)cc1OC | 0.992
* C[C@H](CCC(=O)O)[C@H]1CCC2C3C(CC[C@@]21C)[C@@]1(C)CC[C@@H](O)C[C@H]1C[C@@H]3O (stereo partly specified) | 1
* N#Cc1cccc(Cn2c(=O)oc3ccccc32)c1 | 0.998

normalized growth reported for this compound COC(=O)CCC(C)[C@H]1CCC2C3C(C[C@H](O)[C@@]21C)[C@@]1(C)CC[C@@H](O)C[C@H]1C[C@H]3O (stereo partly specified) : 0.988
